B1: KRT33B (parent)
chain: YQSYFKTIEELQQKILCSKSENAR

# Variants of: B1
# Test: protein stability index of a GFP-peptide fusion (GPS, HEK-293T) (PSI 1-6); higher = more stable;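 note: lentivirally expressed fusions sorted by FACS into six bins by GFP to DsRed ratio, PSI derived from sequencing read proportions per bin multiplied by bin number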
# Test settings: c terminus: a fixed tail appended
Parameter threshold = 2. Response is t when protein stability index meets or exceeds it, else f.

Seq string: YQSYFKTIEELQQKILCSKQENAR
Class name: f
--
Seq string: YQSYFKTIEELPQKILCSKSENAR
Class name: f

Query string: Decide: is the reported value of protein stability index for YQSYFKTIEELQQKILCRKSENAR equal to or greater than 2?
Result string: t

Query string: Decide: is the reported value of protein stability index for YQSYFKTIESLQQKILCSKSENAR equal to or greater than 2?
Result string: f

Query string: Decide: is the reported value of protein stability index for YQSYFKTIEELQQKILCSKIENAR equal to or greater than 2?
Result string: f

Query string: Decide: is the reported value of protein stability index for YQSYFKMIEELQQKILCSKSENAR equal to or greater than 2?
Result string: t

Query string: Decide: is the reported value of protein stability index for YQSYFKTIEELQQKILCSESENAR equal to or greater than 2?
Result string: t

Query string: Decide: is the reported value of protein stability index for YQSYFKTIEMLQQKILCSKSENAR equal to or greater than 2?
Result string: f

Query string: Decide: is the reported value of protein stability index for YQSYFKTDEELQQKILCSKSENAR equal to or greater than 2?
Result string: t

Query string: Decide: is the reported value of protein stability index for YQSYFKTIEELQQKILCSLSENAR equal to or greater than 2?
Result string: f

Query string: Decide: is the reported value of protein stability index for YQSYHKTIEELQQKILCSKSENAR equal to or greater than 2?
Result string: f

Query string: Decide: is the reported value of protein stability index for YQSYFKTIEELQQKILCSKSENVR equal to or greater than 2?
Result string: t

Query string: Decide: is the reported value of protein stability index for YQSYFKTIEELQQKILCSKSESAR equal to or greater than 2?
Result string: t

Query string: Decide: is the reported value of protein stability index for YQSYFKTIEELQQKELCSKSENAR equal to or greater than 2?
Result string: f

Query string: Decide: is the reported value of protein stability index for YQSYFKTIEELQQKILCSKSENHR equal to or greater than 2?
Result string: f
